target: MEKK2 (Homo sapiens, UniProt Q9Y2U5); test: MEKK2 intrinsic ATPase activity assay; format: biochemical; details: 10 nM MEKK2 (vendor 1), 30 μM ATP
Sequence (Q9Y2U5 whole entry): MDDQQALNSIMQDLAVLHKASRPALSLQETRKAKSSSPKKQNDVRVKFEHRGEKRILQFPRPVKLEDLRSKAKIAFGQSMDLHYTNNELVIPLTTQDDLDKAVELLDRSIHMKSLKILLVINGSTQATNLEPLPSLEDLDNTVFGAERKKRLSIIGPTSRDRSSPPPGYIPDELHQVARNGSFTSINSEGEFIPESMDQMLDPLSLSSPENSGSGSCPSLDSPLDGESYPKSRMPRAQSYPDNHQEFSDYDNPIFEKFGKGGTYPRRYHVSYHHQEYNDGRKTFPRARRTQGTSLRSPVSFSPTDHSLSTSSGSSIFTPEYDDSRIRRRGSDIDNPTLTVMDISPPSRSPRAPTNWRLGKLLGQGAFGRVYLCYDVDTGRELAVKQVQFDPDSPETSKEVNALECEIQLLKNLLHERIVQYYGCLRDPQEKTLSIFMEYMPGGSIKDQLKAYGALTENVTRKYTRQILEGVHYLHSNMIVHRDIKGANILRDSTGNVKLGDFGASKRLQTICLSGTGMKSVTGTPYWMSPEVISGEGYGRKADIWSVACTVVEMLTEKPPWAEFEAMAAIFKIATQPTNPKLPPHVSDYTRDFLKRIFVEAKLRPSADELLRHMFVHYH
Attribute Measured: MEKK2 Intrinsic ATPase Assay Hill Slope ± SD
Just the number, please, no unit attached.

{"columns": ["Smiles Structure", "Measured Result"],
 "data": [
  ["Cc1ccc(Nc2nccc(N(C)c3ccc4c(C)n(C)nc4c3)n2)cc1S(N)(=O)=O", 1.06],
  ["Cc1nc(Nc2ncc(C(=O)Nc3c(C)cccc3Cl)s2)cc(N2CCN(CCO)CC2)n1", 1.10],
  ["CCN(CC)CCNC(=O)c1c(C)[nH]c(/C=C2\\C(=O)Nc3ccc(F)cc32)c1C", 1.06],
  ["COc1cc(Nc2c(C#N)cnc3cc(OCCCN4CCN(C)CC4)c(OC)cc23)c(Cl)cc1Cl", 1.07]
]}

The value of MEKK2 Intrinsic ATPase Assay Hill Slope ± SD measured for the molecule `Cc1cc(Nc2cc(N3CCN(C)CC3)nc(Sc3ccc(NC(=O)C4CC4)cc3)n2)[nH]n1` turned out to be 0.97
